TEST METHOD NOTES: amyloid nucleation score (Sup35N fusion, yeast selection) (log enrichment); library NNK2; higher = more nucleation; inactive = no reads after selection;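 note: zero at mode of non-aggregating sequences after 7 days selection at 30°C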
Threshold rule: amyloid nucleation score greater than or equal to 0.3 is condition met; below that, condition not met.

Record excerpt, results attached:
[[record]]
substance = "VNSLFLVVRYGG"
qualitative_label = "condition met"

[[record]]
substance = "MLWVYWLGCHVRSYNLGYLR"
qualitative_label = "condition not met"

[[record]]
substance = "GMSITPWHWFGPCISFPDIN"
qualitative_label = "condition not met"

[[record]]
substance = "RWMVHAA"
qualitative_label = "condition not met"

[[record]]
substance = "VMVCGTFANKLRLPVSIELT"
qualitative_label = "condition met"

[[record]]
substance = "NNFSVSFLGVDVF"
qualitative_label = "condition not met"

[[record]]
substance = "IVPSQH"
qualitative_label = "condition not met"

[[record]]
substance = "LFLQVGTAVGIRYINGAYLV"
qualitative_label = "condition not met"


State whether the measured amyloid nucleation score reaches 0.3, counting equality as reaching it, for RISRFCL
condition met

State whether the measured amyloid nucleation score reaches 0.3, counting equality as reaching it, for STELYARMVKCCVGIADYTD
condition met

State whether the measured amyloid nucleation score reaches 0.3, counting equality as reaching it, for RLKMEICDLTFPAQLFQTFG
condition met

State whether the measured amyloid nucleation score reaches 0.3, counting equality as reaching it, for CLCGYYQSRMDTYYEL
condition not met

State whether the measured amyloid nucleation score reaches 0.3, counting equality as reaching it, for WGFIVDFILSGRRPAGYQLL
condition met

State whether the measured amyloid nucleation score reaches 0.3, counting equality as reaching it, for VVANINEVLINPRCSAGFHD
condition met

State whether the measured amyloid nucleation score reaches 0.3, counting equality as reaching it, for MGAYEGDRVQMLEHADFRKN
condition not met

State whether the measured amyloid nucleation score reaches 0.3, counting equality as reaching it, for PAYLDPCTSFSVILAMVLLW
condition met

State whether the measured amyloid nucleation score reaches 0.3, counting equality as reaching it, for YLPVLEVVPTNGVPHDRFWS
condition met

----------
TEST METHOD NOTES: amyloid nucleation score (Sup35N fusion, yeast selection) (log enrichment); library NNK1; higher = more nucleation; inactive = no reads after selection
Threshold rule: amyloid nucleation score greater than or equal to 0.4 is Yes; below that, No.

Record excerpt, results attached:
[[record]]
ordered_residues = "SNIQDCYRFEGLHKKTNENL"
qualitative_label = "No"

[[record]]
ordered_residues = "GPPSLYTWTAYCELSRRPEG"
qualitative_label = "Yes"

[[record]]
ordered_residues = "LVFTCVGCWYQGKLWNE"
qualitative_label = "Yes"

[[record]]
ordered_residues = "CTGFLRVWPLGEMYEDRR"
qualitative_label = "No"

[[record]]
ordered_residues = "SIVGWCICLREFSVRFSYAE"
qualitative_label = "Yes"

[[record]]
ordered_residues = "NSGEEYVRVEGNCAFKSLSC"
qualitative_label = "Yes"


State whether the measured amyloid nucleation score reaches 0.4, counting equality as reaching it, for EHGERAQGPISGMLGRKCIE
Yes

State whether the measured amyloid nucleation score reaches 0.4, counting equality as reaching it, for DFLKGLFIRFRKSNFE
No

----------
TEST METHOD NOTES: amyloid nucleation score (Sup35N fusion, yeast selection) (log enrichment); library NNK3; higher = more nucleation; inactive = no reads after selection
ASSAY METRIC: amyloid nucleation score

Past entries and their recorded results:
[[record]]
substance = "FMSRMRKWFGCSNTHSSGTR"
assay_metric = "amyloid nucleation score"
recorded_value = 1.77

[[record]]
substance = "TDRFNAFSWAVASGFVDFDG"
assay_metric = "amyloid nucleation score"
recorded_value = "inactive"

[[record]]
substance = "GLLLVRM"
assay_metric = "amyloid nucleation score"
recorded_value = "inactive"

[[record]]
substance = "YDDVVVI"
assay_metric = "amyloid nucleation score"
recorded_value = "inactive"

[[record]]
substance = "IIRSGGNGLCSTKYLSSHFL"
assay_metric = "amyloid nucleation score"
recorded_value = "inactive"

[[record]]
substance = "TLMGLESVSVYFSVGFLSVY"
assay_metric = "amyloid nucleation score"
recorded_value = "inactive"

[[record]]
substance = "SKLFVSVSTTIYFEEPSPA"
assay_metric = "amyloid nucleation score"
recorded_value = "inactive"

[[record]]
substance = "LFFCNCCYGICS"
assay_metric = "amyloid nucleation score"
recorded_value = 2.4


Give amyloid nucleation score for each of the items listed below.
1. APDVQYFYSLQD
2. EMSAMRCILLMRVDPICSLS
3. ESTYVDGRNTVNDYCPNSTI

["inactive", "inactive", "inactive"]

Give amyloid nucleation score for each of the items listed below.
1. SLFRFVDECCMNDFRLRLSC
2. SRCIFIIVIVSGSYGFSVSN
3. FVQDFSTFTAGWCL
4. SLWIYTMSYCLSWNYDCFG
5. SHNRCVEWFKWIF

["inactive", 1.14, "inactive", 0.669, 0.885]

Every entry's value here was drawn from the supplement of paper PMC12042874.
